The origin of these recorded values is patent US6455472B1.

REPORTED_PROPERTY: melting point

melting point for CCOC(=O)C1CC/C(=C(\C#N)C(=O)c2ccccc2Cl)N1 (stereo not drawn) [I-1-d-4] is 222 to 224 °C

melting point for N#C/C(C(=O)c1ccc(Cl)cc1)=C1\CCC(C(=O)O)N1 (stereo not drawn) [Example 8] is 134 to 136 °C

melting point for COC(=O)CSc1ccc(C(=O)/C(C#N)=C2/CCCCN2)cn1 [I-2-a-6] is 146 °C

====

Recorded melting point values for a group of molecules are listed next.

> print(dat)
                            molecule  reported.result
1  N#C/C(C(=O)c1ccc(Cl)cc1)=C1\CCCN1    156 to 158 °C

melting point for N#C/C(C(=O)c1ccc(NS(=O)(=O)C(F)(F)F)cc1)=C1\CCCCN1 is 197 °C

melting point for CCOC(=O)C1CC/C(=C(\C#N)C(=O)c2ccc(Cl)cc2)N1 (stereo not drawn) is 108 to 110 °C
